experiment: qHTS assay for small molecule disruptors of the mitochondrial membrane potential - cell viability (AID 720634); conditions: HepG2 viability, ATP luminescence (CellTiter-Glo), 1 h; series mostly up to 83.2 µM;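 note: human HepG2 liver cancer cells; nearly all actives have a fitted effect of over 20% in size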
Records with an inconclusive call do not appear. Activity calls are given as the source filed them. Calls come from the whole dose curve.
Measurement name: outcome

// worked examples, outcome included
- Compound: "CCCC(C)(COC(N)=O)COC(=O)NC(C)C (configuration not stated)"
  outcome: "inactive"
- Compound: "C[N+]1(CCC(C(N)=O)(c2ccccc2)c2ccccc2)CCCCC1"
  outcome: "inactive"
- Compound: "C1CS1"
  outcome: "inactive"
- Compound: "COC1=CC(=O)O[C@@H](/C=C/c2ccc3c(c2)OCO3)C1"
  outcome: "inactive"
- Compound: "O=C(O)C(F)(F)C(F)(F)C(F)(F)C(F)(F)C(F)(F)F"
  outcome: "inactive"

## Task What outcome value was documented for this compound, CC(C)OC(=O)Cc1ccccc1 ?
## Result inactive

## Task What outcome value was documented for this compound, Cc1ncc(C[n+]2csc(CCO)c2C)c(N)n1 ?
## Result inactive

## Task What outcome value was documented for this compound, C=CC(=O)OCC ?
## Result inactive

## Task What outcome value was documented for this compound, COc1ccc2c(c1OC)C(=O)O[C@H]2[C@@H]1c2cc3c(cc2CCN1C)OCO3 ?
## Result inactive

## Task What outcome value was documented for this compound, O=C(N[C@H]1CN2CCC1CC2)c1ccc2c(c1)OCCO2 ?
## Result inactive

## Task What outcome value was documented for this compound, CCCC1CCCCN1 (configuration not stated) ?
## Result inactive

## Task What outcome value was documented for this compound, CN[C@@H](C)[C@H](O)c1ccccc1 ?
## Result inactive

* * *

test: qHTS assay for small molecule agonists of the p53 signaling pathway - cell viability (AID 651633); conditions: p53RE-bla HCT-116 viability, ATP luminescence, 16 h; series mostly up to 83.3 µM; note: nearly all actives have a fitted effect of over 30% in size
Inconclusive results are not listed. Active and inactive are the calls of the source. Calls come from the whole dose curve.
// allowed return values: 1 (active), -1 (inactive)

- Molecule: "COC(=O)Cc1ccccc1"
  Group label: -1
- Molecule: "CN[C@@H](C)[C@H](O)c1ccccc1"
  Group label: -1
- Molecule: "CC(C)CCCCCCCOC(=O)c1ccccc1C(=O)OCCCCCCCC(C)C"
  Group label: -1
- Molecule: "OCCSSCCO"
  Group label: -1
- Molecule: "CC(C)c1ccc(NC(=O)N(C)C)cc1"
  Group label: -1

## Task // param item: O=C1NC(=O)C(=O)C(=O)N1 ; yields the recorded call
## Result -1

## Task // param item: CCCBr ; yields the recorded call
## Result -1

## Task // param item: O=C=NC1CCCCC1 ; yields the recorded call
## Result -1

## Task // param item: CCCCNC(=O)OCC#CI ; yields the recorded call
## Result 1

## Task // param item: OCCCl ; yields the recorded call
## Result -1

## Task // param item: N#CC(C#N)=C(C#N)C#N ; yields the recorded call
## Result -1

* * *

test: qHTS assay to identify small molecule agonists of the sonic hedgehog signaling (Shh) pathway - cell viability counter screen (AID 1259366); conditions: NIH/3T3 Gli1-Luc viability, CellTiter-Fluor, 24 h; series mostly up to 92.4 µM; note: nearly all actives have a fitted effect of over 50% in size
Inconclusive results are not listed. Activity calls are given as the source filed them. Calls follow the shape of the dose curve; as a rule, active = well fitted cell-killing curve with a large enough effect in the repeat runs; inconclusive = weak or mixed curves, or effect the other way; inactive = flat fitted curve, though single readings scatter.
// allowed return values: active, inactive

Example cases with answers are listed next.
- Compound: "CCC1CCC(=O)O1 (stereo unspecified)"
  Group label: "inactive"
- Compound: "C[C@H]1[C@@H]2Cc3ccc(O)cc3[C@@]1(C)CCN2C"
  Group label: "inactive"
- Compound: "C[N+](C)(C)CCOC(=O)C(O)(c1ccccc1)c1ccccc1"
  Group label: "inactive"

## Task // param item: CCCN(CCOc1c(Cl)cc(Cl)cc1Cl)C(=O)n1ccnc1 ; yields the recorded call
## Result inactive

## Task // param item: CC(C)OC(=O)Cc1ccccc1 ; yields the recorded call
## Result inactive

## Task // param item: Clc1ccc(Cl)c(Cl)c1 ; yields the recorded call
## Result inactive
